Experiment: PK study in mice, single dose i.p.
Conditions: mouse, in vivo, ip, single dose 50 mg/kg i.p.
metric_name: Tmax

Sure, the documented Tmax for CN(C)c1cc(NC(=O)CNC(C)(C)C)c(O)c2c1C[C@H]1C[C@H]3[C@H](N(C)C)C(O)=C(C(N)=O)C(=O)[C@@]3(O)C(O)=C1C2=O is ~30 min

* * *

Test: PK study in mice, single dose i.p.
Settings: mouse, in vivo, ip, single dose 50 mg/kg i.p.
metric_name: half-life

Sure, the documented half-life for CN(C)c1cc(NC(=O)CNC(C)(C)C)c(O)c2c1C[C@H]1C[C@H]3[C@H](N(C)C)C(O)=C(C(N)=O)C(=O)[C@@]3(O)C(O)=C1C2=O is ~4.5 h

Value source: patent US20140221301A1
